Please respond with reported protein stability index for every item in the list.
# Protocol Summary: protein stability index of a GFP-peptide fusion (GPS, HEK-293T) (PSI 1-6); higher = more stable;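 also: 24-mer peptide tiles fused after GFP, lentivirally expressed, FACS-sorted into six equal bins by GFP/DsRed ratio, decoded by Illumina sequencing, PSI is the read-weighted mean bin number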
# Reported Conditions: treatment: DMSO; c terminus: a fixed tail appended
Give bare numbers.

Recorded protein stability index, per entry:
Residue Sequence: QELPPYNGFGLVEDSAQNCFALIP [EFHC1]
Quantity Kind: protein stability index
Endpoint Result: 3.38

Residue Sequence: NSFSLNSSISSSARRTTRSEPIRR [MAP2]
Quantity Kind: protein stability index
Endpoint Result: 4.46

Residue Sequence: QITSRVVSAATQLRHFFLVEDLVD [RTN2]
Quantity Kind: protein stability index
Endpoint Result: 2.83

Residue Sequence: EDLKGHVAETSGETIQGFWLLTKI [TPRG1]
Quantity Kind: protein stability index
Endpoint Result: 2.37

// each listed sequence needs a value for protein stability index
1. SSSSGRLSEPDPSHTLEERVVHWY [SMOC2]
2. DKLALCHLELTRKLQDLIKDVLRY [FCHO1]
3. VTTYLHKDYNNLWIIKKHNTNSDP [POMT2]

1: 3.14; 2: 2.9; 3: 2.31

// each listed sequence needs a value for protein stability index
1. FKAEVDPLSDKGTTPLQLAIIRER [ASB7]
2. GSMEQVSSHFLEQTLDKKLMSDLR [INTS4]
3. FLLAFGLMIIVCIDQWKNKIWPEI [RETREG3]
4. KVKTMEVTSVSIELEKNFSNFPRQ [TRIM39]
5. HSKASLPTGEGSISHEEQKSVRLA [CHCHD6]

1: 3.82; 2: 3.72; 3: 2.94; 4: 3.15; 5: 5.14

Give its protein stability index value. Item: RRNLEEDDYLHKDTGETSMLKRPV [STEAP1] 4.69

* * *

# Protocol Summary: protein stability index of a GFP-peptide fusion (GPS, HEK-293T) (PSI 1-6); higher = more stable
# Reported Conditions: treatment: DMSO; c terminus: a fixed tail appended
Please respond with reported protein stability index for every item in the list.
Answers are plain numbers.

Recorded protein stability index, per entry:
Residue Sequence: LLLELKGLQEEPVEGFRVTLVDEG [CDC34]
Endpoint Result: 2.64
--
Residue Sequence: VGVMLPHNTTEAPGPHSAKQDSYE [ZC2HC1C]
Endpoint Result: 5.03
--
Residue Sequence: GIKSKEAEEYRLKEHYLTFEKSRY [PSD2]
Endpoint Result: 3.82
--
Residue Sequence: ALATLRVLRGLARPEHPPPAPTGQ [TMEM175]
Endpoint Result: 3.09
--
Residue Sequence: SDPCGQLRPTLLLTSLHHFMHSRN [PNLIPRP1]
Endpoint Result: 2.3
--
Residue Sequence: LQQIADFMTTNVPNVYPAAPQGGM [ADD1]
Endpoint Result: 3.3
--
Residue Sequence: GRFEQLGKTAASWCLHVNNWLQVS [FSD1]
Endpoint Result: 2.29
--
Residue Sequence: KCEHCRVLFLDHVMYTIHMGCHGF [IKZF1]
Endpoint Result: 2.24
--
Residue Sequence: LALDREPPPHLLPEKHQVPEKLIW [WDR88]
Endpoint Result: 3.31
--
Residue Sequence: GGHSRERADEPQWSLYPSDSQVSE [CHGB]
Endpoint Result: 5.28

// each listed sequence needs a value for protein stability index
1. SLPPPAGLNSSWVELPMNSSNGND [BNIP3L]
2. FRFTYYTILDIFRFALRFIRPDPR [FAF2]
3. RSFVEKHRWPSNMYLKQLAEYRKY [RHOBTB3]

4.94
2.56
2.38
